B1: SOAT1 (parent)
chain: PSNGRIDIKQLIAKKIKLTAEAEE

variants of: B1; test: protein stability index of a GFP-peptide fusion (GPS, HEK-293T) (PSI 1-6); higher = more stable; details: c terminus: a fixed tail appended;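 also: lentivirally expressed fusions sorted by FACS into six bins by GFP to DsRed ratio, PSI derived from sequencing read proportions per bin multiplied by bin number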

{"columns": ["Variant label", "protein stability index"],
 "data": [
  ["L11Q", 3.58],
  ["L11C", 3.5],
  ["P1S", 3.46],
  ["S2H", 3.01],
  ["K17L", 3.12],
  ["I16A", 4.04],
  ["K9F", 2.06],
  ["L18S", 3.59],
  ["I8N", 4.01],
  ["E23V", 2.3],
  ["I8F", 3.54],
  ["T19M", 1.89],
  ["I8R", 4.06],
  ["A13E", 3.56],
  ["I6F", 2.83],
  ["K14I", 2.71],
  ["E23I", 2.69],
  ["P1H", 3.24],
  ["L11H", 3.97],
  ["A20P", 3.78],
  ["K17Q", 3.5],
  ["K14V", 2.98]
]}
